B1: LYSMD4 (parent)
chain: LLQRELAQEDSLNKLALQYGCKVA

Variants of: B1
Assay: protein stability index of a GFP-peptide fusion (GPS, HEK-293T) (PSI 1-6); higher = more stable;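 further: lentivirally expressed fusions sorted by FACS into six bins by GFP to DsRed ratio, PSI derived from sequencing read proportions per bin multiplied by bin number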
Conditions: c terminus: a fixed tail appended
Attribute: protein stability index

{"mutantLabel": "S11D", "protein stability index": 1.88}
{"mutantLabel": "L17N", "protein stability index": 1.57}
{"mutantLabel": "L2K", "protein stability index": 2.6}
{"mutantLabel": "L2E", "protein stability index": 2.92}
{"mutantLabel": "A16T", "protein stability index": 1.78}
{"mutantLabel": "G20D", "protein stability index": 2.94}
{"mutantLabel": "Q8G", "protein stability index": 1.42}
{"mutantLabel": "Y19P", "protein stability index": 3.28}
{"mutantLabel": "K22S", "protein stability index": 2.2}
{"mutantLabel": "Y19F", "protein stability index": 2.06}
{"mutantLabel": "Y19R", "protein stability index": 1.85}
{"mutantLabel": "A24Y", "protein stability index": 2.75}
{"mutantLabel": "V23I", "protein stability index": 1.89}
{"mutantLabel": "K14R", "protein stability index": 1}
{"mutantLabel": "Q8D", "protein stability index": 4.68}
{"mutantLabel": "A16S", "protein stability index": 1.98}
{"mutantLabel": "L12R", "protein stability index": 2.49}
{"mutantLabel": "Q18T", "protein stability index": 1.18}
{"mutantLabel": "Q3M", "protein stability index": 1.65}
{"mutantLabel": "D10G", "protein stability index": 1.9}
{"mutantLabel": "Q3H", "protein stability index": 2.24}
{"mutantLabel": "G20W", "protein stability index": 3.05}
